- targetEntity: T1, NPY2 receptor (human (printed as hNPY2R), UniProt P49146 1-381)
- T1 sequence (looked up): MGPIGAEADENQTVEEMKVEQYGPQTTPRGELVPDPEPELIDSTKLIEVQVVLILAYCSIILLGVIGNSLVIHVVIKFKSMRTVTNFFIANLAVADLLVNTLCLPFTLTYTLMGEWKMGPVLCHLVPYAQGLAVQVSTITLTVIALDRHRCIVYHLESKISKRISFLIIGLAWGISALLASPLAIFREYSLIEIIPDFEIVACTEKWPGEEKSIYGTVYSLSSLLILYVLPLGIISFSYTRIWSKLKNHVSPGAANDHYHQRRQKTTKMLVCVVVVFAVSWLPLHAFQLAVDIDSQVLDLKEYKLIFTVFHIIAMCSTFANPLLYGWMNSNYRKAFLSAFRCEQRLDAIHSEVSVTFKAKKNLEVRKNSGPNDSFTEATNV
- testDescription: cell-based or functional assay
Starred links: 1 amine or outer side, 2 acyl side, 3 side chain; linkers in the order of their positions; H or OH if unused. Non-standard residues stand in square brackets, D forms with d. Groups on a side chain read outwards from the residue. No end group written: not given here. *: point of attachment. C20 diacid = O=C(O)CCCCCCCCCCCCCCCCCCC(=O)*; C18 diacid = O=C(O)CCCCCCCCCCCCCCCCC(=O)*; γGlu = O=C(O)[C@H](CCC(=O)[*:2])N[*:1]; εLys = N[C@@H](CCCCN[*:1])C(=O)[*:2]; AEEA = NCCOCCOCC(=O)O; Aib = CC(C)(N)C(=O)O
EC50 hNPY2R 0.5% hP (CreLuc): recorded values
Hi! Could you send only the number? It should be in nM, unit omitted.

Solved cases (8 shown):
>  <binder>
YXEGTFTSDYSIXLEKQAQXAFVEWLIKGGPSEGASLRHYYNWLTRQRY (Aib at 2, 13, 20; NMeQ (N-methyl-L-glutamine) at 47; K28 side chain carries C20DA-gGlu-gGlu-gGlu-gGlu-gGlu-gGlu-eLys; C-terminal amide) [Compound 222]

>  <unitsLabel>
nM

>  <EC50 hNPY2R 0.5% hP (CreLuc)>
13.3

$$$$
>  <binder>
YXEGTFTSDYSIXLEKQAQXAFVEWLIKGGPSSGASLRHYXNWLTRQRY (Aib at 2, 13, 20, 41; K28 side chain carries C20DA-gGlu-gGlu-gGlu-gGlu-gGlu-gGlu-eLys; C-terminal amide) [Compound 184]

>  <unitsLabel>
nM

>  <EC50 hNPY2R 0.5% hP (CreLuc)>
46

$$$$
>  <binder>
Y[Aib]EGTFTSDYSI[Aib]LEKQAE[Aib]AFVQWLIK([εLys-γGlu-γGlu-γGlu-γGlu-γGlu-C20 diacid])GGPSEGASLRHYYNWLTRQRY-NH2 (also: TFA salt) [Compound 200]

>  <unitsLabel>
nM

>  <EC50 hNPY2R 0.5% hP (CreLuc)>
12.1

$$$$
>  <binder>
Y[Aib]EGTFTSDYSI[Aib]LEKQAQ[Aib]AFIEWLIK([γGlu-γGlu-γGlu-γGlu-C18 diacid])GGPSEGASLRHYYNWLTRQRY-NH2 (also: TFA salt) [Compound 247]

>  <unitsLabel>
nM

>  <EC50 hNPY2R 0.5% hP (CreLuc)>
11.9

$$$$
>  <binder>
Y[Aib]EGTFTSDYSI[Aib]LE[Aib]QAQ[Aib]AFVEWLIKGGPSSGASLRHYYNWLTRQRY-NH2 (not fully specified (residue 28); also: TFA salt) [Compound 199]

>  <unitsLabel>
nM

>  <EC50 hNPY2R 0.5% hP (CreLuc)>
30

$$$$
>  <binder>
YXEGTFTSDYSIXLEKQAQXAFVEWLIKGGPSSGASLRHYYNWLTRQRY (Aib at 2, 13, 20; K28 side chain carries C18DA-gGlu-gGlu-gGlu-gGlu-gGlu; C-terminal amide) [Compound 253]

>  <unitsLabel>
nM

>  <EC50 hNPY2R 0.5% hP (CreLuc)>
13.4

$$$$
>  <binder>
Y[Aib]EGTFTSDYSI[Aib]LEKQAQ[Aib]AFVQWLIK([εLys-γGlu-γGlu-γGlu-γGlu-γGlu-γGlu-γGlu-C20 diacid])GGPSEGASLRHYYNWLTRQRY-NH2 (also: TFA salt) [Compound 224]

>  <unitsLabel>
nM

>  <EC50 hNPY2R 0.5% hP (CreLuc)>
10.6

$$$$
>  <binder>
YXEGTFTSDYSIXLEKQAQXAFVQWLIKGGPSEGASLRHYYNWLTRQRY (Aib at 2, 13, 20; K28 side chain carries C18DA-E-E-E-E-E (SEQ ID NO: 636); C-terminal amide) [Compound 257]

>  <unitsLabel>
nM

>  <EC50 hNPY2R 0.5% hP (CreLuc)>
16.9

$$$$

Give its EC50 hNPY2R 0.5% hP (CreLuc) value. Item: Y[Aib]EGTFTSDYSI[Aib]LEKQAQ[Aib]AFVEWLIK([AEEA-AEEA-γGlu-γGlu-γGlu-γGlu-C20 diacid])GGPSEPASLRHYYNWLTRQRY-NH2 (also: TFA salt) [Compound 226] 11.4
